Known Max. Inhib. (%) of a selection of binders
molecular target: T1, human LAG-3 ECD/Fc fusion protein (human); assay: FACS RBA, huLAG-3 ECD/Fc on Raji; competitor MHC Class II
T1 construct: also called HuLAG-3 ECD/Fc
T1 sequence (chain, as listed by the source limits assumed): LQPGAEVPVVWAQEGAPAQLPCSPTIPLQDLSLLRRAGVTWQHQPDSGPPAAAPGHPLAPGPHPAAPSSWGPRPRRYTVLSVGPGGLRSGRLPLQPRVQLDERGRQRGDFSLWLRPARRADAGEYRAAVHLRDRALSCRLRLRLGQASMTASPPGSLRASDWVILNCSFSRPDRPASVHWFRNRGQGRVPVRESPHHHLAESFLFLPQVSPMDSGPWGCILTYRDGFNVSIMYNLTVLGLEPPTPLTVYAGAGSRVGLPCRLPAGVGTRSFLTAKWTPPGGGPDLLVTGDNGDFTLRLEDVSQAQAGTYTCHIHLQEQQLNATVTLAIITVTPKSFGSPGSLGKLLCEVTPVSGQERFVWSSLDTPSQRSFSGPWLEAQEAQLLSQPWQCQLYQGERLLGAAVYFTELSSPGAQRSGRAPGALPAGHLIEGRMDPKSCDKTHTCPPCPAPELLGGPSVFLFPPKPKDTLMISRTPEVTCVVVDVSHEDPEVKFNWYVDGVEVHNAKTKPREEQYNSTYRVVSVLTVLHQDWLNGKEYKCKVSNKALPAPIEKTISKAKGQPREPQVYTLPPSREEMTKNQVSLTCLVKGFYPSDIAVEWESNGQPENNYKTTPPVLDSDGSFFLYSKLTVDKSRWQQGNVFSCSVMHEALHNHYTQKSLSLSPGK
Give the number; % is assumed, so skip it.

| BINDER | RESULT_TYPE | MEASUREMENT_UNIT | NUMERIC_RESULT |
| --- | --- | --- | --- |
| mAb742 (antibody, V domains shown, murine hybridoma anti-LAG-3 mAb) VH: QGQLQQSGAELVRPGASVTLSCKASGYTFNDYEMHWVKQTPVHGLEWIGAIDPETGGTAYNQKFKGKAILTADKSSSTAYMELRSLTSEDSAVYYCIRWGSTVFPYWGQGTLVTVS VL: DGVLTQTPLSLPVNIGDQASISCKSTKSLLNSDGFTYLDWYLQKPGQSPQLLIYLVSNRFSGVPDRFSGSGSGTDFTLKISRVEAEDLGVYYCFQSNYLPWTFGGGTKLEIK | Max. Inhib. (%) | % | 96.5 |

According to the records, this binder mAb746 (antibody, V domains shown, murine hybridoma anti-LAG-3 mAb; also called rnAb746; 3502-mAb746) VH: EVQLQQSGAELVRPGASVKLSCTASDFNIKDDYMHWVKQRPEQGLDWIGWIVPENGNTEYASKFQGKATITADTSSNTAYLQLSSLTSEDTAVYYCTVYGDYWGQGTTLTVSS VL: DIQMTQSPSSLSASLGERVSLNCRASQEISGYLSWLQQKSDGTIKRLIYAASTLDSGVPKRFSGSRSGSDYSLTISSLESEDFADYYCLQYASYPLTFGAGTKLELK displays Max. Inhib. (%) of 96.2
